The reported numbers originate from paper PMC4158172.

Assay: EFV plasma pharmacokinetics when co-administered with DTG, by CYP2B6 genotype
Conditions: human, in vivo, C max, EFV 600 mg q24h with DTG 50 mg, all subjects n=12, geometric mean (CV%)
Procedure: This was a phase I, open-label, single-sequence, two-period, steady-state study. Subjects received DTG at a dose of 50 mg (two 25 mg tablets) every 24 hours (q24h) for 5 days (period 1), and then the combination of morning DTG 50 mg and evening EFV 600 mg q24h was given for 14 days (period 2). […] The metabolic profile of DTG was evaluated in plasma and urine using pooled samples for each subject to assist in establishing the mechanism of any potential drug interaction (see Supplementary Material). […]
measure: Cmax (ng/mL)
One number for each entry, in ng/mL.

Could you tell me which Cmax is on file for O=C1Nc2ccc(Cl)cc2[C@@](C#CC2CC2)(C(F)(F)F)O1 ?
6020
